Values from paper PMC5552345

- ASSAYED_SYSTEM: T1, (NANP)9 peptide (Plasmodium falciparum CSP repeat, …)
- T1 construct: printed as (NANP)9, written out here; NANP repeat of P. falciparum CSP
- T1 chain: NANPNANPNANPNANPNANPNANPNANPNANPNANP
- TEST_DETAILS: ELISA; recombinant 2A10, germline precursor, hybrids and their point mutants tested on the (NANP)9 peptide; details in S1 Methods
QUANTITY_KIND: binding result

# BINDER, QUANTITY_KIND, DATA_VALUE
records = [
    ("hybrid antibody mLC + gHC with heavy chain T67F (antibody, V domains shown, as the heavy chain of m17 (gHC); as the light chain of m7; source: HEK293T cells, expressed) VH: QIQLVQSGPELKKPGETVKISCKASGYTFTNYGMNWVKQAPGKGLKWMGWINTNTGEPTFAEEFKGRFAFSLETSASTAYLQINNLKNEDTATYFCARGSEFGRLDYWGQGASVTVSS VL: DIQMTQTTSSLSASLGDRVTISCSASQGISNYLNWYQQKPDGTVKLLIFYTSTLYSGVPSRFSGSGSGTDYSLTISNLEPEDIATYYCQQYSRFPYVFGGGTKLEIK", "binding result", "binds"),
    ("2A10 gAb with light chain L114F (antibody, V domains shown, as the heavy chain of m17 (gHC); as the light chain of m17 (gLC); source: HEK293T cells, expressed) VH: QIQLVQSGPELKKPGETVKISCKASGYTFTNYGMNWVKQAPGKGLKWMGWINTNTGEPTYAEEFKGRFAFSLETSASTAYLQINNLKNEDTATYFCARGSEFGRLDYWGQGASVTVSS VL: DIQMTQTTSSLSASLGDRVTISCSASQGISNYLNWYQQKPDGTVKLLIYYTSSLHSGVPSRFSGSGSGTDYSLTISNLEPEDIATYYCQQYSKFPYTFGGGTKLEIK", "binding result", "binds"),
    ("2A10 gAb with light chain H68Y (antibody, V domains shown, as the heavy chain of m17 (gHC); as the light chain of m17 (gLC); source: HEK293T cells, expressed) VH: QIQLVQSGPELKKPGETVKISCKASGYTFTNYGMNWVKQAPGKGLKWMGWINTNTGEPTYAEEFKGRFAFSLETSASTAYLQINNLKNEDTATYFCARGSEFGRLDYWGQGASVTVSS VL: DIQMTQTTSSLSASLGDRVTISCSASQGISNYLNWYQQKPDGTVKLLIYYTSSLYSGVPSRFSGSGSGTDYSLTISNLEPEDIATYYCQQYSKLPYTFGGGTKLEIK", "binding result", "binds"),
    ("recombinant antibody corresponding to the 2A10 mAb (antibody, V domains shown, 2A10 heavy chain (mHC), as the heavy chain of m1; FAB part in the deposited structures; 2A10 light chain (mLC), as the light chain of m1; in the deposited structures; also called mHC + mLC; source: HEK293T cells, expressed) VH: QIQLVQSGPELKKPGETVKISCKASGYTFTNYGINWVKQAPGKGLKWMGWINTITEEPTFAEEFTGRFAFSLETSASTAYLQINNLKNEDTATYFCARGSEFGRLVYWGQGASVTVSS VL: DIQMTQTTSSLSASLGDRVTISCSASQGISNYLNWYQQKPDGTVKLLIFYTSTLYSGVPSRFSGSGSGTDYSLTISNLEPEDIATYYCQQYSRFPYVFGGGTKLEIK", "binding result", "binds"),
    ("2A10 gAb with light chain L114F and T117V (antibody, V domains shown, as the heavy chain of m17 (gHC); as the light chain of m17 (gLC); also called L114F and T117V introduced simultaneously; source: HEK293T cells, expressed) VH: QIQLVQSGPELKKPGETVKISCKASGYTFTNYGMNWVKQAPGKGLKWMGWINTNTGEPTYAEEFKGRFAFSLETSASTAYLQINNLKNEDTATYFCARGSEFGRLDYWGQGASVTVSS VL: DIQMTQTTSSLSASLGDRVTISCSASQGISNYLNWYQQKPDGTVKLLIYYTSSLHSGVPSRFSGSGSGTDYSLTISNLEPEDIATYYCQQYSKFPYVFGGGTKLEIK", "binding result", "binds"),
    ("hybrid antibody mLC + gHC with heavy chain M39I (antibody, V domains shown, as the heavy chain of m17 (gHC); as the light chain of m7; source: HEK293T cells, expressed) VH: QIQLVQSGPELKKPGETVKISCKASGYTFTNYGINWVKQAPGKGLKWMGWINTNTGEPTYAEEFKGRFAFSLETSASTAYLQINNLKNEDTATYFCARGSEFGRLDYWGQGASVTVSS VL: DIQMTQTTSSLSASLGDRVTISCSASQGISNYLNWYQQKPDGTVKLLIFYTSTLYSGVPSRFSGSGSGTDYSLTISNLEPEDIATYYCQQYSRFPYVFGGGTKLEIK", "binding result", "binds"),
    ("hybrid antibody mLC + gHC with heavy chain N59I (antibody, V domains shown, as the heavy chain of m17 (gHC); as the light chain of m7; source: HEK293T cells, expressed) VH: QIQLVQSGPELKKPGETVKISCKASGYTFTNYGMNWVKQAPGKGLKWMGWINTITGEPTYAEEFKGRFAFSLETSASTAYLQINNLKNEDTATYFCARGSEFGRLDYWGQGASVTVSS VL: DIQMTQTTSSLSASLGDRVTISCSASQGISNYLNWYQQKPDGTVKLLIFYTSTLYSGVPSRFSGSGSGTDYSLTISNLEPEDIATYYCQQYSRFPYVFGGGTKLEIK", "binding result", "binds"),
]
